# target-or-system: T1, human CLDN6, endogenously expressed on cancer cell lines (human, UniProt P56747 1-220)
# T1 construct: also called Endogenous CLDN6+; CLDN6 on ARK2, OVCA429, UMUC4 cells
# T1 sequence: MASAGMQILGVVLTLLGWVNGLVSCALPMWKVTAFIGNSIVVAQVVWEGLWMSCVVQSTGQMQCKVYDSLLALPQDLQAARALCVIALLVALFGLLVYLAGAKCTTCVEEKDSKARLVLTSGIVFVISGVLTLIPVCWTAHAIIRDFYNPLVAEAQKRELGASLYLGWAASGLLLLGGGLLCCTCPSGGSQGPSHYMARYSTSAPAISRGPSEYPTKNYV
# assay-name: flow cytometry on UMUC4 cells (Positive Cell Line), anti-human IgG Fc secondary antibody
Hi there, I'd appreciate the recorded flow cytometry signal at 0.1µg Ab/Sample for every entry that follows.
Answers are plain numbers.

Could you report flow cytometry signal at 0.1µg Ab/Sample for every entry in the following list?
1. AB3-7 conjugated to MC-GGFG-MMAE (D4 technology) (antibody, V domains shown, MC-GGFG-MMAE conjugated to the antibody (D4); sites not stated, Antibody-drug conjugate of humanized AB3-7; also called CLDN6 ADC) VH: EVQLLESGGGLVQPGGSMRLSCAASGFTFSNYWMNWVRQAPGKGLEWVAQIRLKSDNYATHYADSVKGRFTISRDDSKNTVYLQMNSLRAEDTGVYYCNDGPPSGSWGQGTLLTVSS VL: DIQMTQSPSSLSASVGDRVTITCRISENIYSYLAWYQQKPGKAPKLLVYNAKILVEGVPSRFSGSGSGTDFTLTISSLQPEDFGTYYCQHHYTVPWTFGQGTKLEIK
2. AB3-7 conjugated to CL2A-SN38 (conventional) (antibody, V domains shown, CL2A-SN38 conjugated to the antibody, heterogeneous (conventional); sites not stated, Antibody-drug conjugate of humanized AB3-7; also called CLDN6 ADC) VH: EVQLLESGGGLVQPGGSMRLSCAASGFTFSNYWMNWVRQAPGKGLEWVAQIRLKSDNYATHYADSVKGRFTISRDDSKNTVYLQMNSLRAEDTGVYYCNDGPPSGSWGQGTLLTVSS VL: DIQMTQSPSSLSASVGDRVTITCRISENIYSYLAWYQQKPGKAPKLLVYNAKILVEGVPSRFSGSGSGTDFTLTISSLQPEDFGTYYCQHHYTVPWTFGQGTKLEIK
3. AB3-7 (antibody, V domains shown, Humanized; also called humanized AB3-7; AB23) VH: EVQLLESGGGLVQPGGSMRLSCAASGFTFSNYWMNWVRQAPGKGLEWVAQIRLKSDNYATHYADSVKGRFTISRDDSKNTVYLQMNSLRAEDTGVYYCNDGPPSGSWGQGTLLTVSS VL: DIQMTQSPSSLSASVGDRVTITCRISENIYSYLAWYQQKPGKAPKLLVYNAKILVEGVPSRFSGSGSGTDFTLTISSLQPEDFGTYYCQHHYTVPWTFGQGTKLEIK
4. AB3-7 conjugated to MC-VC-PAB-MMAE (conventional) (antibody, V domains shown, MC-VC-PAB-MMAE conjugated to the antibody, heterogeneous (conventional); sites not stated, Antibody-drug conjugate of humanized AB3-7 (WuXi Biologics); also called CLDN6 ADC; ADC-23 (conventional)) VH: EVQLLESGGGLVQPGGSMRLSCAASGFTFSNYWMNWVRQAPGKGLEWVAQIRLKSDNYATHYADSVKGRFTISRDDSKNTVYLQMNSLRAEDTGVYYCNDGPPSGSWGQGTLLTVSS VL: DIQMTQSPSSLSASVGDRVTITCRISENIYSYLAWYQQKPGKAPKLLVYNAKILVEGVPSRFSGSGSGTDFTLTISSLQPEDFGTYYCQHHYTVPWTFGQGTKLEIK
5. AB3-7 conjugated to MC-GGFG-DXD (antibody, V domains shown, MC-GGFG-DXD conjugated to the antibody; sites not stated, Antibody-drug conjugate of humanized AB3-7; also called CLDN6 ADC) VH: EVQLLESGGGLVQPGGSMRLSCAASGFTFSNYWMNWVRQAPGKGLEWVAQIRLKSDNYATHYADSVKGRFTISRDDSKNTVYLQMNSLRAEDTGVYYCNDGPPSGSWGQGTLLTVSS VL: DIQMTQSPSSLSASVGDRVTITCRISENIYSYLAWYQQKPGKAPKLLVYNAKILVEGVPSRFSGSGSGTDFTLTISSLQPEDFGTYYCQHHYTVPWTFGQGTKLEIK

A)
1: 8790; 2: 9990; 3: 8820; 4: 8910; 5: 10500
